target-under-test: UniProt P35462
Sequence (P35462 whole entry): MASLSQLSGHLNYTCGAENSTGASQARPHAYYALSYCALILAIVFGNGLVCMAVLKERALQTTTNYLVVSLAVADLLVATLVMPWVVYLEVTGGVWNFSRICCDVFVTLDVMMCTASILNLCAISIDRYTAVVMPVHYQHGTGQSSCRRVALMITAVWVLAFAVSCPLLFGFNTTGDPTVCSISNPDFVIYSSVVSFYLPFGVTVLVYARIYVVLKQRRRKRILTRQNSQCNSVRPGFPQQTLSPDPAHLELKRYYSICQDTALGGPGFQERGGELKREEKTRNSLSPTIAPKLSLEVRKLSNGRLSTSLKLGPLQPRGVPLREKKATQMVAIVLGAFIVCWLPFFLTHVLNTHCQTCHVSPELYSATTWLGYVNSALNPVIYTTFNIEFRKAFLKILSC
experiment: Binding affinity towards human dopamine receptor 3 expressed in Chinese hamster ovary cells using [3H]spiperone (0.5 nM) as radioligand
Format: cell-based
measured-parameter: Ki (µM)

Please review the entries below; each comes with its answer.
>>> number("CCCN(CCC)C1CCn2ncc(C=O)c2C1 (stereo not given)")
12
>>> number("CCCN(CCC)C1CCn2ncc(C(=O)OC)c2C1 (stereo not given)")
17

(a) CCCN(CCC)C1CCn2ncc(CO)c2C1 (stereo not given)
(b) CCCN(CCC)[C@@H]1CCn2nccc2C1
(c) CCCNC1CCn2ncc(C(=O)OC)c2C1 (stereo not given)
Form: Sort by [Ki] Order [ ascending ] Form field (ranking): labels in requested order.
b, a, c
(b: 2.7 µM, a: 4 µM, c: 12 µM)
